test system: c-Src; test: phosphorylation enrichment, bacterial display (enrichment ratio); higher = better substrate or ligand; peptides without Tyr show the background
Below is a list of entries, each paired with its recorded phosphorylation enrichment value.
Assay Endpoint: phosphorylation enrichment

• LLLLFYVVRYC [MPZ_Y177] = 0.492
• TTPGPHRSIYF [MPG_Y71_Y71H] = 0.458
• SHSMRYFDTSV [HLA-C_Y31_A35S] = 0.432
• TTIVSYRASQP [MKI67_Y1737_K1734I] = 0.539
• NVGGKYSYLKV [GRM3_Y478] = 0.351
• RGFDTYFGYLL [ARSB_Y165] = 6.46
• EKKQTYGSCRK [LACTB_Y473_R469K] = 0.43
• ALKWGYTVKGI [OAT_Y158_R154L] = 0.31
• YAKSVYWENTL [NUP107_Y296] = 0.871

* * *

Below is a list of entries, each paired with its recorded SH2 binding enrichment value.
target: Grb2 SH2 (UniProt P62993); assay: SH2 binding enrichment of the phosphorylated peptide, bacterial display (enrichment ratio); higher = better substrate or ligand; peptides without Tyr show the background
Sequence (P62993 whole entry, looked up): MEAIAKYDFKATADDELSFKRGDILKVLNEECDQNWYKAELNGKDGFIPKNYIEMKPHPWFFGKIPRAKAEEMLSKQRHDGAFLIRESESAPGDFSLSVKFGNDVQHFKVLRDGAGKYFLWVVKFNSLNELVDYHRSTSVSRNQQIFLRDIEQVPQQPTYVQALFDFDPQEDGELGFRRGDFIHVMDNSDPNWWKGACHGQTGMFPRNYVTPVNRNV
Assay Endpoint: SH2 binding enrichment

- YAKSVYWENTL [NUP107_Y296]: 0.823
- AELVRYFMEHH [PTPN11_Y80_Q79R_YF]: 0.807
- VEDHYYEGGIG [TKT_Y564]: 0.883
- SLEKSYELPDG [ACTA1_Y242]: 0.824
- SAVVPYEPPEV [TP53_Y220_V216A]: 0.806
- HEVHIYEKSGA [ARPC1B_Y35]: 0.817
- SSFPDYLAAVD [GLB1_Y154_D151Y_YF]: 0.816
- ELAKFYKLHHI [AK7_Y391_N389K_YF]: 0.646
- YVFSFYHAFSG [ACTN4_Y265_S262F]: 1.19
- EHTTLYSDNST [KANSL1_Y223_N225D]: 0.949
- TRDTDYQMTKR [ADA_Y308_L304R]: 0.821
- SYMVRYNQPRV [GRIN2D_Y736]: 0.871
- CQASLYPSNHD [LRIG1_Y996_G993A]: 0.781
- ASTDYNKRGDF [PDHA1_Y243_Y243N]: 0.954
- TEAEPYFCSLR [NPHS1_Y1138_R1140C_YF]: 0.848
- LLARLYRGQAL [FGFR4_Y390_G388R]: 0.827
- FETSHYLASPD [CTNND2_Y1217_P1218L_YF]: 0.923
- FPSLPYSPVSS [CAMKK2_Y128_C123Y_YF]: 0.857
- EEGNPSFSSAR [MCCC2_Y520_Y520S_YF]: 0.75
- ENFDDYMKDVG [FABP4_Y20_E23D]: 0.832
- EDGCIYPGTIA [SMN1_Y109_A111G]: 0.915

* * *

test system: c-Src; experiment: phosphorylation enrichment, bacterial display (enrichment ratio); higher = better substrate or ligand; peptides without Tyr show the background
Below is a list of entries, each paired with its recorded phosphorylation enrichment value.
Assay Endpoint: phosphorylation enrichment

- EVESPYEVHDF [GIGYF2_Y1168_YF]: 5.45
- EDGCIYPGTIA [SMN1_Y109_A111G]: 0.567
- YGLQAYTKVKT [ALDH2_Y502_E504K]: 0.435
- LVVFEYMRHGD [NTRK1_Y591_M587V]: 0.374
- QKKEEYKMALY [F8_Y1990_R1985Q]: 0.978
- EYGSGYPNDPK [RNASEH2A_Y210_D205E]: 0.386
- LNAGAYSKVVE [PPT1_Y172_Q177E]: 0.523
- GEPLSHTRFSL [TFRC_Y20_Y20H]: 0.456
- SEPDLYYDPRG [PKP1_Y160_C161Y]: 4.93
- DFFDLYGGQKF [PTPN11_Y66_E69Q_YF]: 6.89
- NPETCYQKLKK [TK2_Y190_R192K]: 0.425
- NNRVFYGNSDC [RS1_Y177_R182C]: 0.381
- RIPFRYPKEFQ [IDS_Y234_H229R]: 1.1
- PKEQRYSFLQN [GH1_Y68_K67R]: 0.631

* * *

molecular target: Fyn (UniProt P06241); test: phosphorylation enrichment, bacterial display (enrichment ratio); higher = better substrate or ligand; peptides without Tyr show the background
Sequence (P06241 whole entry, looked up): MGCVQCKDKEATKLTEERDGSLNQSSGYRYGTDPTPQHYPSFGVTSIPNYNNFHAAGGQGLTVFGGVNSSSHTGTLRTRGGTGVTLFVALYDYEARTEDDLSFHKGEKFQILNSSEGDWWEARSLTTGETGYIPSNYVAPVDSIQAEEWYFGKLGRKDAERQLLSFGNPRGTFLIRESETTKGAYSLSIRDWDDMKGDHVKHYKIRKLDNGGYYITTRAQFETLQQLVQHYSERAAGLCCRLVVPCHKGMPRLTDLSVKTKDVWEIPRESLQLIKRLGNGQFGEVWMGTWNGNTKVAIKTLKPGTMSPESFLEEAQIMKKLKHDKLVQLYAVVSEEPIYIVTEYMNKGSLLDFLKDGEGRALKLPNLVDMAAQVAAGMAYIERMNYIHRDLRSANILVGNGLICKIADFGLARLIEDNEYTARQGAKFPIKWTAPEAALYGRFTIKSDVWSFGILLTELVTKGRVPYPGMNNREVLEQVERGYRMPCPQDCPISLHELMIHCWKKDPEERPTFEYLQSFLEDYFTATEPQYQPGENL
Assay Endpoint: phosphorylation enrichment

• CKLFQYFLDHL [ATRX_Y1849_YF] = 0.536
• KVPELYEIHKE [BCR_Y554] = 0.631
• LLREWYLPDPY [SIX3_Y225_Q227P] = 0.477
• LKLIQYHLIQQ [AKAP4_Y554_T557I] = 0.553
• YSDPSYVKQME [CDC5L_Y464] = 0.434
• NNPAFYVLEGV [INPPL1_Y987_YF] = 0.699
• EFLHKYKGFKI [SYNE1_Y6953_Q6951H_YF] = 0.318
• HNQDGYSFLSR [LDLR_Y845_P848L_YF] = 0.654
• EIRTQDEAMAS [GFAP_Y242_Y242D] = 0.43
• SVIKEYQIRQV [USH2A_Y3623_G3618S] = 0.352
• TVFENYVADIE [RHOA_Y42] = 0.58
• EVESPYEVHDF [GIGYF2_Y1168_YF] = 5.32
• DFAIVYGTIIL [GPR179_Y460_G455D] = 0.692
• KRISCYEASYQ [PFKFB3_Y194] = 0.452
• TLMNAYSSRCH [KIF11_Y231_S235C] = 0.571
• LLREWYLQDPF [SIX3_Y225_YF] = 0.564
• VLNKGYRMVVN [HINT1_Y94_G89V] = 0.383
• YAFQLYDLDRD [CHP2_Y123] = 2.66
• ERPIRYLNHQL [CEP152_Y268_Q265P] = 0.457

* * *

biological target: Fyn (UniProt P06241); test: phosphorylation enrichment, bacterial display (enrichment ratio); higher = better substrate or ligand; peptides without Tyr show the background
Assay Endpoint: phosphorylation enrichment

* DRIVNYSRASI [ATP7A_Y1459] | 0.374
* GTPVMYTYDEY [COL10A1_Y623] | 1.76
* EEDPEYKKKFR [FAM161A_Y278] | 0.61
* PKEQRYSFLQN [GH1_Y68_K67R] | 0.605

* * *

biological target: Fes (UniProt P07332); assay: phosphorylation enrichment, bacterial display (enrichment ratio); higher = better substrate or ligand; peptides without Tyr show the background
Sequence (P07332 whole entry, looked up): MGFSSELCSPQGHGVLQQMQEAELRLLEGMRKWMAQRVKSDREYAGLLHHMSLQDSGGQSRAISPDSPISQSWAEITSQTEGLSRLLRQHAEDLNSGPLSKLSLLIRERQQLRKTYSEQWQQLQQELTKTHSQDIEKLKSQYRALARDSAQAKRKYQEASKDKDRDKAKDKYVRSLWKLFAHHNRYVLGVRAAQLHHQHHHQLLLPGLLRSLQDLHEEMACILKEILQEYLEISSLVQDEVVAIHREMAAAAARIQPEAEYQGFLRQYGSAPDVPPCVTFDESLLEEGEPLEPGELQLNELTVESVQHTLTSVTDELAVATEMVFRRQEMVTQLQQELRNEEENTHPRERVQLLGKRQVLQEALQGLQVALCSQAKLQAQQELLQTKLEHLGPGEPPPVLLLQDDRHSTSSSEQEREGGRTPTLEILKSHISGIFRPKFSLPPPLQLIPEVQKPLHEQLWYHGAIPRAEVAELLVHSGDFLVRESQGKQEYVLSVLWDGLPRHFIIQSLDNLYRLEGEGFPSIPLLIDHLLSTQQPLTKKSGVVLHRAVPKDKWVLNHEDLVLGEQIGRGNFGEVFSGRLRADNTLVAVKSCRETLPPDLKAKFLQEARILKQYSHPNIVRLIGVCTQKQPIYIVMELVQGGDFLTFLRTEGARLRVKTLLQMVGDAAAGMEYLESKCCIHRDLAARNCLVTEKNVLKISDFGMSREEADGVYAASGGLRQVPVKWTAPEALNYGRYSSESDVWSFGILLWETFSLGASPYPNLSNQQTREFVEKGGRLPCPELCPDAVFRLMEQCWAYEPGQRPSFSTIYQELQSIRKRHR
Below is a list of entries, each paired with its recorded phosphorylation enrichment value.
Assay Endpoint: phosphorylation enrichment

• VDSIEYEVASQ [SLC7A7_Y7_T5I] = 1.18
• TSFSGYRCHRH [NKAPL_Y94_Y96C_YF] = 0.727
• LWPIWYRCRRP [MRGPRX1_Y130_H133R] = 0.512
• GGMTEYELVVV [KRAS_Y4_K5E] = 1.04
• GKSHIYFWTLE [EML2_Y230] = 1.3
• SEPDLYYDPRG [PKP1_Y160_C161Y] = 1.16
• PEADKYRLTFA [FGG_Y300_YF] = 1.18
• ANVKWYRSGRE = 0.841
• TEAEPYFCSLR [NPHS1_Y1138_R1140C_YF] = 1.22
• WEQELYSQLVY [WAS_Y102] = 2.69
• LYVDVYGPSVP [NUBPL_Y109_D105Y] = 1.32
• DFKIIYIAPMR [SNRNP200_Y540] = 1.22
• PKEQRYSFLQN [GH1_Y68_K67R] = 1.44
• TEDPEYDVQSK [PTCHD3_Y335] = 1.01
• LPPGEYVVVPS [CAPN1_Y494] = 1.45
• AVNNFYAAKKT [CCDC178_Y422_D420N] = 0.58

* * *

target: Grb2 SH2 (UniProt P62993); assay: SH2 binding enrichment of the phosphorylated peptide, bacterial display (enrichment ratio); higher = better substrate or ligand; peptides without Tyr show the background
Class membership depends on SH2 binding enrichment alone; the intervals are 1 (below 0.8), 2 (0.8 to below 1), 3 (1 or more)

• KIPGRYFETGS [PAX2_Y72_L69P_YF] = 3
• CLLHCYFSQIR [MCM3AP_Y873] = 3
• KGVDRYNPENL [EIF3K_Y21_I18V] = 1
• DVFLKYLNFAT [PDE6B_Y212] = 3
• HEEDNYIEMIP [NWD2_Y566_L569M] = 1
• SHLSAYPALEG [CD5_Y465] = 2
• FSCLPCGRLAY [SLC52A2_Y305_Y305C] = 3
• VECRVYAEDPF [PCCA_Y401_YF] = 1
• KNRDVSSSDFF [USP24_Y2134_Y2134S_YF] = 2
• LNPDGYEKAYE [CPXM2_Y427] = 2
• FRNSLYAPDFS [FAM92A_Y226_YF] = 1
• SHSMRYFDTSV [HLA-C_Y31_A35S] = 2
• NPETCYQKLKK [TK2_Y190_R192K] = 2
• GMKIVYVFVKK [DNAI2_Y5_E2K_YF] = 3
• RALRHYYKLNI [ETV6_Y401] = 3
• KLLPEYPGVLS [DHFR2_Y163] = 2
• EIIPFYGMSSY [FNDC3B_Y175_T179S] = 2
